- System: MCF7 cells
- experimental-details: Adriamycin sensitivity of MCF7 cells
- assay-setup: Homo sapiens, MCF7, read-out: EC50 (effective concentration median of dose response curve)
measured-parameter: EC50

QUERY: Provide one value: measured EC50 of COc1cccc2c1C(=O)c1c(O)c3c(c(O)c1C2=O)C[C@@](O)(C(=O)CO)C[C@@H]3O[C@H]1C[C@H](N)[C@H](O)[C@H](C)O1
RESULT: 40 nM

* * *

Below, each of the compounds is paired with its reported pIC50 value.
- Tested on: HeLa cells
- experimental-details: cells
- Assay type: cell-based
- assay-setup: Homo sapiens, HeLa, read-out: IC50 Results (MTT), HeLa cells transfected with P16 siRNA (p16 siRNA I)
- Method: III. MTT Cytotoxicity Assays. 24 hours post-transfection, siRNA transfected cells were seeded into 96-well plates at 3×10^3 cells/well. The cells were incubated for 16-24 hours. […] The dye was solubilized with DMSO and absorbance measured at 570 nm using a multiwell plate reader (WALLAC). The results were expressed as the average of duplicate wells using the plate reader's Prism software (GraphPad). […]
Friendly reminder that pIC50 comes from taking -log10 of the concentration in mol/L.

Worked cases, pIC50 given:
structure-smiles	pIC50
O=C(O)CCCc1ccc(N(CCCl)CCCl)cc1	4.42
N[C@@H](Cc1ccc(N(CCCl)CCCl)cc1)C(=O)O	5.44

// below: pIC50 requested for another compound
QUERY: Provide one value: measured pIC50 of S=P(N1CC1)(N1CC1)N1CC1
RESULT: 4.47
